Data provenance is patent US7589089B2.

Target: mGlyT-1b (Mus musculus, UniProt P28571)
Sequence (P28571 1-651 isoform P28571-2): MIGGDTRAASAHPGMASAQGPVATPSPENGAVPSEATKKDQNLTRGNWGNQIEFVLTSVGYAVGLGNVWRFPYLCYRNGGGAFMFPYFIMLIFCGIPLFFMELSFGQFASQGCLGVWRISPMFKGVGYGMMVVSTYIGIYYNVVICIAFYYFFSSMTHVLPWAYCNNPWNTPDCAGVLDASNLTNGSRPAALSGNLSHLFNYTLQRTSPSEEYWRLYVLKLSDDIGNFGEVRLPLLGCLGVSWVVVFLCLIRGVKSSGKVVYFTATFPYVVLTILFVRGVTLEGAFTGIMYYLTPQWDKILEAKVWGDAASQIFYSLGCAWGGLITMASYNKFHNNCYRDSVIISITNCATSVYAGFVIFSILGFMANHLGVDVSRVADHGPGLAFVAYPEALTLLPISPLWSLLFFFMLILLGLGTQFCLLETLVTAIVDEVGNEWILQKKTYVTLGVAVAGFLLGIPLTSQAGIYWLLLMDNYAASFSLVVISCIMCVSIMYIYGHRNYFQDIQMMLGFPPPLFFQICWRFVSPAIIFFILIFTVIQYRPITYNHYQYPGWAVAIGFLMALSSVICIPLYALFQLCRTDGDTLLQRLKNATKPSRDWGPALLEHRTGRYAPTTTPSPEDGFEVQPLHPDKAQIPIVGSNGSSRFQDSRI
Assay: Glycine Uptake Inhibition Assay (mGlyT-1b)
pIC50: −log10 of the molar value.
// label = criterion met if pIC50 is not less than 7, otherwise criterion not met

Worked set:
O=C(CN(Cc1c(F)cccc1F)C(=O)c1ccc(F)cc1)Nc1ccc(F)c(Cl)c1
criterion not met
N#Cc1ccc(C(=O)N(CC(=O)Nc2ccc(F)c(Cl)c2)Cc2ccccc2Cl)cc1
criterion not met
COc1ccc(C(=O)N(CC(=O)Nc2cccc(Cl)c2)Cc2ccsc2)cc1
criterion not met
O=C(CN(Cc1cc(F)cc(F)c1)C(=O)c1ccc(OC(F)(F)F)cc1)Nc1ccc(F)c(Cl)c1
criterion not met
O=C(CN(Cc1ccccc1)C(=O)c1ccc(F)cc1)Nc1cccc(Cl)c1
criterion not met

Could you now consider this next compound?
Reported pIC50 reaches at least 7 for COc1ccccc1CN(CC(=O)Nc1cccc(Cl)c1)C(=O)c1ccc(Cl)cc1 ?
criterion met

----------
Molecular target: mGlyT-1b (Mus musculus, UniProt P28571)
Experiment: Glycine Uptake Inhibition Assay (mGlyT-1b)
Can you tell me log10 IC50 for the items I'm about to list?
Plainly stated, the numbers are log10 of IC50 given in µM.

Please review the entries below; each comes with its answer.
COc1ccc(C(=O)N(CC(=O)Nc2cccc(Cl)c2)Cc2c(F)cccc2F)cc1
-1.00
O=C(CN(Cc1ccccc1)C(=O)c1ccc(Cl)cc1)Nc1cccc(Cl)c1
-0.81
COc1ccc(C(=O)N(CC(=O)Nc2cccc(Cl)c2)Cc2cccc(Cl)c2)cc1
-1.62

Would you be so kind as to report log10 IC50 for each listed record?
1. O=C(CN(Cc1ccccc1Cl)C(=O)c1ccc(OC(F)(F)F)cc1)Nc1cccc(C(F)(F)F)c1
2. O=C(CN(Cc1cccc(F)c1F)C(=O)c1ccc(F)cc1)Nc1ccc(F)c(Cl)c1
3. O=C(CN(Cc1ccco1)C(=O)c1ccc(Cl)cc1)Nc1cccc(Cl)c1
4. O=C(CN(Cc1c(F)cccc1F)C(=O)c1cc2ccccc2s1)Nc1ccc(F)c(Cl)c1
5. O=C(CN(Cc1ccc(F)c(F)c1)C(=O)c1ccc(Cl)cc1)Nc1cccc(Cl)c1

1: -0.71; 2: -0.75; 3: -0.70; 4: -1.05; 5: -0.58

----------
Target: mGlyT-1b (Mus musculus)
Experiment: Glycine Uptake Inhibition Assay (mGlyT-1b)
measured-attribute: IC50 (nM)
Answers are plain numbers, in nM.

O=C(CN(Cc1ccccc1Cl)C(=O)c1cc2ccccc2s1)Nc1ccc(F)c(Cl)c1
205
O=C(CN(Cc1ccccc1F)C(=O)c1ccc(Cl)nc1)Nc1cccc(Cl)c1
182

Would you be so kind as to report IC50 for each listed record?
1. COc1ccc(C(=O)N(CC(=O)Nc2cccc(C(F)(F)F)c2)c2ccccc2)cc1
2. N#Cc1ccc(C(=O)N(CC(=O)Nc2cccc(C(F)(F)F)c2)Cc2ccccc2Cl)cc1
3. CN(C)c1ccc(C(=O)N(CC(=O)Nc2ccc(Cl)c(Cl)c2)c2ccccc2)cc1
4. COc1ccc(C(=O)N(CC(=O)Nc2ccc(Cl)c(Cl)c2)c2cccc(Cl)c2)cc1
5. N#Cc1ccc(C(=O)N(CC(=O)Nc2ccc(F)c(Cl)c2)Cc2c(F)cccc2F)cc1

[148, 339, 191, 210, 199]

Please give the measured IC50 for this molecule: O=C(CN(Cc1c(F)cccc1F)C(=O)c1ccc(Cl)cc1)Nc1cccc(Cl)c1
52
